Each entry below carries its reported pKd.
Target: T1, human ACTH 18-39 (human)
T1 construct: also called CLIP; CLIP (ACTH 18-39)
T1 peptide: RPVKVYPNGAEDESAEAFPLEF
Experiment: SPR ProteOn, antibody immobilised
pKd: −log10 of the molar value.

binder	pKd
Ab11A.H (antibody, human IgG1, kappa, N297A, V domains shown) VH: EVQLVESGGGLVQPGGSLRLSCAASGFTVSAYDILWVRQAPGKGLESIGMMYDDGDTYYATSAKGRFTISRDNSKNTLYLQMNSLRAEDTAVYYCVKGVSNIWGQGTLVTVSS VL: DIQMTQSPSTLSASVGDRVTITCQASQSIGSSLAWYQQKPGKAPKLLIYSASTLASGVPSRFSGSGSGTEFTLTISSLQPDDFATYYCQSYEGSSSSYYGIGFGGGTKVEIKR	7.70
Ab4 (antibody, human IgG1, kappa, N297A, V domains shown, rabbit/human chimeric antibody, made in HEK-293) VH: QSVEESGGRLVTPGTPLTLTYTVSGFSLSKHDMIWVRQAPGKGLESIGIIYDDGDTYYANWAKGRFTISKTSTTVDLKIISPTTEDTATYFCVKGVSNIWGPGTLVTVSS VL: DVVMTQTPASVEAAVGGTVTIKCRASQSISVYLAWYQQKAGQPPKLLIYQASKLASGVPSRFKGSGSGTEFTLTISDLECADAATYYCQSYDGSSSSSYGVGFGGGTEVVVKR	6.57
Ab11.H (antibody, human IgG1, kappa, N297A, V domains shown, humanized form of Ab11) VH: EVQLVESGGGLVQPGGSLRLSCAASGFTVSAYDILWVRQAPGKGLESIGMMYDDGDTYYATSAKGRFTISRDNSKNTLYLQMNSLRAEDTAVYYCVKGVSNIWGQGTLVTVSS VL: DIQMTQSPSTLSASVGDRVTITCQASQSIDSSLAWYQQKPGKAPKLLIYSASTLASGVPSRFSGSGSGTEFTLTISSLQPDDFATYYCQSYDGSSSSYYGIGFGGGTKVEIKR	7.70
